# System: SGK
# test parameters: concentration: 1 μM, replicates: in singlicate; n = 1;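 note: KINOMEscan kinase panel screen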
recorded metric: %Inh (%)

* CCCc1ccc(S(=O)(=O)NC2CCN(c3ccnc(Nc4ccc(OC)cc4)n3)C2)cc1 (centres unmarked) | 0
* COC(=O)c1cccc(NC(=O)NCCNc2ccnc(Nc3ccc(F)cc3)n2)c1 | 0
* Fc1cccc(COc2ccc(Nc3ncnc4cc[nH]c34)cc2Cl)c1 | 23
* COc1cc2ncnc(Nc3ccc(OCc4ccccc4Br)c(Cl)c3)c2cc1OC.Cl | 4
* Fc1ccc(-c2ncn(CCCNCc3ccccc3)c2-c2ccncc2)cc1 | 30

###

# System: CASK
# test parameters: concentration: 1 μM, replicates: in singlicate; n = 1
Category | rule: reported %Inh within range, see lower = under 5%, middle = from 5% up to 20%, upper = 20% and over

* COc1ccc(NC(=O)c2ccc(-c3cc(-c4nnc(C)o4)ccc3C)cc2)cc1 [GW595885] | upper
* O=C(Nc1ccccc1)Nc1ccc(Oc2ccc3nccn3n2)cc1 | middle
* Clc1cccc(-c2nc(Nc3ccncc3)c3ccccc3n2)c1 [GW873004] | lower
* CN1c2ccc(-c3ccc(C(=O)NCCO)cc3)cc2-c2[nH]ncc2S1(=O)=O | upper
* Fc1cccc(COc2ccc(Nc3ncnc4cc[nH]c34)cc2Cl)c1 | lower
* Fc1cccc(COc2ccc(Nc3ncnc4nn5ccccc5c34)cc2Cl)c1 [GW689066] | lower
* Fc1ccc(Nc2nccc(-c3c(-c4ccc(Cl)cc4)nn4ncccc34)n2)cc1F [GW829058] | upper
* Cl.Cn1ccc(-c2cccc(Nc3ccnc4cc(-c5nccs5)ccc34)c2)n1 [GW525701] | lower
* Cl.Fc1ccccc1COc1ccc(Nc2ncnc3ccc(-c4nnc(C(F)(F)F)o4)cc23)cc1Cl [GW424170] | lower
* O=C(CCO)NCCn1ccc2ncnc(Nc3ccc(Oc4cccc(C(F)(F)F)c4)c(Cl)c3)c21 | lower
* Cl.O=S(=O)(c1cccc(F)c1)c1ccc(Nc2ncnc3cc(Br)sc23)cc1Cl [GSK306886] | upper
* Nc1n[nH]c2nnc(-c3ccccc3)cc12 [SB-517389] | middle
* Cl.c1ccc(Cn2ccc3cc(Nc4ncnc5ccccc45)ccc32)cc1 [GW275568] | middle
* Nc1nccc2scc(-c3ccc4c(c3)CCN4C(=O)Cc3cc(F)ccc3F)c12 [GSK2587663] | upper
* C[C@H]1CC[C@@H](C(=O)Nc2ccccc2)CN1c1cc(-c2ccc3c(N)n[nH]c3c2)nc(N)n1 [GSK2283293] | lower
* Clc1ccc(-c2cc(-c3c[nH]nc3-c3ccccn3)ccn2)cc1 [GW681251] | upper
* Nc1nc(-c2cccnc2)c(-c2ccnc3ccccc23)s1 [GW684083] | middle
* CSc1ccc(NC2=C(c3ccccc3Cl)C(=O)NC2=O)cc1 [SB-342411] | upper

###

%Inh reference
# Tested on: WNK4
# test parameters: concentration: 1 μM, replicates: in singlicate; n = 1
recorded metric: %Inh

* Cc1ccc(C)c(NC(=O)NCCNc2ccnc(Nc3ccc(F)cc3)n2)c1 | 23%
* Cl.O=S(=O)(c1cccc(F)c1)c1ccc(Nc2ncnc3cc(Br)sc23)cc1Cl | 0%
* Nc1nc(-c2ccccn2)c(-c2ccnc3ccccc23)s1 | 88%
* Cc1ccc(NC(=O)c2cccc(C#N)c2)cc1-c1ccc(C(=O)Nc2ccncc2)cc1 | 3%
* CS(=O)(=O)CCNCc1nc(-c2ccc3ncnc(Nc4ccc(OCc5cccc(F)c5)c(Cl)c4)c3c2)cs1.Cl | 0%
* CC(C)(C)OC(=O)NC1CCCN(c2cc(-c3ccc4c(N)n[nH]c4c3)nc(N)n2)C1 (stereo not drawn) | 12%
* OCCOCCn1ccc2ncnc(Nc3ccc(Oc4cccc(Cl)c4)c(Cl)c3)c21 | 0%
* Cl.Cl.c1ccc(-c2cc3ccncc3cc2OC2CCNCC2)cc1 | 28%
* Cl.Cn1ccc(-c2cccc(Nc3ccnc4cc(-c5nccs5)ccc34)c2)n1 | 66%
* CSc1nn2c(=O)cc(N3CCOCC3)nc2n1Cc1cccc(Cl)c1Cl | 0%
* CCc1nc(-c2cccc(N(C)S(=O)(=O)c3ccccc3)c2)c(-c2ccnc(Nc3ccc(N4CCN(C(C)=O)CC4)nc3)n2)s1 | 0%
* Nc1nc(-c2cccnc2)c(-c2ccnc3ccccc23)s1 | 39%
* CCc1nc(-c2cccc(C)c2)c(-c2ccnc(NC(=O)c3ccccc3)c2)s1 | 18%
* CNc1nccc(-c2c(-c3ccc(F)cc3)ncn2CCCN2CCOCC2)n1 | 0%
* Cc1ccc(O)cc1Nc1cc(C(F)(F)F)nc2ccc(-c3ccncc3)cc12 | 0%
* COc1ccc(Nc2nccc(N3CCC(NC(=O)Nc4ccc5c(c4)OCO5)C3)n2)cc1 (stereo not drawn) | 24%
* COc1ccc(-c2oc3ncnc(N)c3c2-c2ccc(OC)cc2)cc1 | 55%
* CS(=O)(=O)CCNCc1ccc(-c2ccc3ncnc(Nc4ccc(OCc5ccccc5)c(Cl)c4)c3c2)o1.Cl | 22%
